# Tested on: HCI-012 (organoid from a breast cancer xenograft)
# experiment_notes: CTG-3D luminescence at 96 h relative to day-0 seeding control (ratio to day 0); higher = more growth / less cytotoxicity; PDxO 3D drug screen (set 2), 96 h, CTG-3D normalised to day-0 seeding control.
# measurement_parameters: 12.5 pM; days in culture: 243
metric: CTG-3D luminescence at 96 h
I only need the number, thanks.

See these solved cases before continuing.
Can you share its CTG-3D luminescence at 96 h? I mean this compound: `CC(C)n1nc(-c2ccc3oc(N)nc3c2)c2c(N)ncnc21`
1.95

Try this compound too: `Cc1c(CN2CCN(C(=O)[C@H](C)O)CC2)sc2c(N3CCOCC3)nc(-c3cnc(N)nc3)nc12`
2.34

Same read-out for COc1cccc2c1C(=O)c1c(O)c3c(c(O)c1C2=O)C[C@@](O)(C(=O)CO)C[C@@H]3O[C@H]1C[C@H](N)[C@@H](O)[C@H](C)O1 [epirubicin] ?
1.9

Now consider a different compound.
Query: CTG-3D luminescence at 96 h; subject: `O=C(c1cc(Cc2n[nH]c(=O)c3ccccc23)ccc1F)N1CCN(C(=O)C2CC2)CC1`
1.73

###

Listing: CTG-3D luminescence at 96 h of selected compounds
# Tested on: HCI-019 (organoid from a triple-negative breast cancer xenograft)
# experiment_notes: CTG-3D luminescence at 96 h relative to day-0 seeding control (ratio to day 0); higher = more growth / less cytotoxicity; PDxO 3D drug screen, 96 h, CTG-3D normalised to day-0 seeding control.
# measurement_parameters: 10 µM; days in culture: 110

Here is how some compounds turned out for CTG-3D luminescence at 96 h.
Endpoint output: CTG-3D luminescence at 96 h of `NC(=O)Nc1cc(-c2cccc(F)c2)sc1C(=O)N[C@H]1CCCNC1` . Value?
0.13

One more compound: `NC(=O)c1cccc2cn(-c3ccc([C@@H]4CCCNC4)cc3)nc12`
1.1

Again, but for `O=C(/C=C/c1cccnc1)NCCCCC1CCN(C(=O)c2ccccc2)CC1`
0.0475

Now look at this one.
Give its CTG-3D luminescence at 96 h value. Item: `COc1cccc2c1C(=O)c1c(O)c3c(c(O)c1C2=O)C[C@@](O)(C(=O)CO)C[C@@H]3O[C@H]1C[C@H](N)[C@H](O)[C@H](C)O1`
0.00454

###

# Test system: HCI-011.E2 (organoid from an ER-positive breast cancer xenograft)
# experiment_notes: CTG-3D luminescence at 96 h relative to day-0 seeding control (ratio to day 0); higher = more growth / less cytotoxicity; PDxO 3D drug screen, 96 h, CTG-3D normalised to day-0 seeding control.
# measurement_parameters: 1 µM; days in culture: 74
metric: CTG-3D luminescence at 96 h

Examples from the recorded data:
So what's the measured CTG-3D luminescence at 96 h for this one? `CNC(=O)c1cccc(-c2ccc3c(N4CCOC[C@@H]4C)nc(N4CCOC[C@@H]4C)nc3n2)c1`
0.26

Now the same for `CC(=O)O[C@H]1C(=O)[C@@]2(C)[C@H]([C@H](OC(=O)c3ccccc3)[C@]3(O)C[C@H](OC(=O)[C@H](O)[C@@H](NC(=O)c4ccccc4)c4ccccc4)C(C)=C1C3(C)C)[C@]1(OC(C)=O)CO[C@@H]1C[C@@H]2O`
1.91

Try the molecule `O=C(/C=C/c1cccnc1)NCCCCC1CCN(C(=O)c2ccccc2)CC1`
2.77

Please answer likewise for `C=CC(=O)N1CCC[C@@H](n2nc(-c3ccc(Oc4ccccc4)cc3)c3c(N)ncnc32)C1`
2.83

# repeat for `COc1cc2c(Oc3ccc4[nH]c(C)cc4c3F)ncnc2cc1OCCCN1CCCC1`
2.47

Cool, now `CS(=O)(=O)c1ccc(C(=O)Nc2ccc(Cl)c(-c3ccccn3)c2)c(Cl)c1`
2.12

Continuing:
Endpoint output: CTG-3D luminescence at 96 h of `CCc1c2c(nc3ccc(O)cc13)-c1cc3c(c(=O)n1C2)COC(=O)[C@]3(O)CC` . Value?
1.06

FYI, the data here is from the supplement of paper PMC8882468.
